assayed_target: Plasma Kallikrein (Homo sapiens, UniProt P03952)
Construct: FXIIa converts plasma prekallikrein (PK) to plasma kallikrein (PKa)
Sequence (P03952 391-638 limits assumed): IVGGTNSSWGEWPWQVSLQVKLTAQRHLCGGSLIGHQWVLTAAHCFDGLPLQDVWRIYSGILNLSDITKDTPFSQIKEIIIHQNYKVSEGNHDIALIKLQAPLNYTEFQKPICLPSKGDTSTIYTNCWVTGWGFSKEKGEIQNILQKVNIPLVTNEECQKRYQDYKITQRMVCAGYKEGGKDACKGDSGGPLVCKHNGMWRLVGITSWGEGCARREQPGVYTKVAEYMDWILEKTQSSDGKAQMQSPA
Sequence (P03952 20-390 partner limits assumed): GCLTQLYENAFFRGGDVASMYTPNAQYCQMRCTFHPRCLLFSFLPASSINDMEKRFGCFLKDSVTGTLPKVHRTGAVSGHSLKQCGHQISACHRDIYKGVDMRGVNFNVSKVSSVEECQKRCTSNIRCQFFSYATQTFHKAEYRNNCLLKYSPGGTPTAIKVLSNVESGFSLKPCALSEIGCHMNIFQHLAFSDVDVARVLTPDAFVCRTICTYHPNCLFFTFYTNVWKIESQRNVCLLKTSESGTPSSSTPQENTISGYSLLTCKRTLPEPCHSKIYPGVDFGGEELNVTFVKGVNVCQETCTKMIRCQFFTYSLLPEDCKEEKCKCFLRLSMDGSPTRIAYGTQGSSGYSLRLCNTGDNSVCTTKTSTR
assay_comment: Related protease inhibition: Plasma Kallikrein (fluorogenic substrate at Km)
conditions_used: class symbols per Table 18, read-out: IC50 (human PKal)
recorded_metric: IC50

Answered cases to consult:
- sample_smiles: "CC1(C)OC2(COc3cccc4c(N)nccc34)CC1(COc1ccc3nccn3c1)C2"
  recorded_metric: "IC50"
  value: "> 40 µM"
- sample_smiles: "Cn1ccc(OCC23CNC(CNc4cccc5c(N)nccc45)(C2)C3)cc1=O"
  recorded_metric: "IC50"
  value: "> 4 µM"
- sample_smiles: "Clc1cc2c(NCC34CC(COc5ccc6nccn6c5)(CCO3)C4)ccnc2[nH]1"
  recorded_metric: "IC50"
  value: "> 40 µM"

I would be grateful if you could share the reported IC50 for Nc1nccc2c(NCC34CC(COc5ccc6nccn6c5)(CO3)C4)cccc12 .
> 40 µM
